# tgt: DNA polymerase beta (Homo sapiens) (UniProt P06746)
# protocolSummary: qHTS Assay for Inhibitors of DNA Polymerase Beta
# measurementConditions: Pol beta primer extension/strand displacement, fluorescence kinetic; series mostly up to 114 µM
Hit rate of the full screen: of about 340,000 compounds, about 4,500 (1.3%) were called active. Not shown: some 5% with an inconclusive outcome. The call rests on the fitted dose curve; in most records, active means well fitted inhibition curve with a large enough effect; inconclusive means small, poorly fitted or top-dose-only effect, or another doubt; inactive means no such curve, though single readings can be large or run the other way. The full list was thinned out, with actives kept by preference.
Labels: T = active, F = inactive

> print(dat)
                                    compound  discretelabel
 1  CCc1cccc(NC(=O)CN(C)S(=O)(=O)c2ccc3[nH]c4c(c3c2)CCCC4)c1              F
 2                 CCOc1ccccc1NC(=O)Cc1cccs1              T
 3  O=C(CSc1nc2ccccc2c(=O)[nH]1)Nc1nc(-c2ccc(Br)cc2)cs1              T
 4  COc1ccccc1/C=C/c1nc(C#N)c(NC(C)c2ccccc2)o1 (stereo not drawn)              F
 5  CCOc1ccc(NC(=O)C/C(C)=N/NC(=O)Cc2cccs2)cc1              F
 6  O=C(NCCN1C(=O)S/C(=C\c2cccnc2)C1=O)c1cccc(OC(F)F)c1              F
 7  Oc1c(Cl)cc(Cl)c(Cl)c1Cc1c(O)c(Cl)cc(Cl)c1Cl              T
 8  O=C(CC(c1cccs1)N1Cc2ccccc2C1=O)Nc1ccc(F)c(F)c1 (stereo not drawn)              F
 9  N#Cc1ccccc1CN1C(=O)S/C(=C/c2cccn2-c2cccc(C(=O)O)c2)C1=O              T
10     COc1ccc(OCC(=O)Nc2nnc(-c3ccco3)s2)cc1              T
11  CC(C)(C)c1ccc(C(=O)NCC(c2ccc(Cl)cc2)N2CCOCC2)cc1 (stereo not drawn)              F
12  O=C(Cc1ccc([N+](=O)[O-])cc1)N/N=C/c1ccco1              F
13      COc1ccccc1OCCOc1ccc(/C=N/n2cnnc2)cc1              T
14  COc1ccc(-c2c3c(=O)n(C)c(=O)n(C)c3c3c(C)nc4ccccc4n23)cc1              F
15         CC1(C)N=C(SCc2ccccc2Cl)c2ccccc2N1              F
16                 CCc1nnc(NC(=O)Cc2cccs2)s1              F
17  Cc1ccc(-c2nnc(SCC(=O)NCc3ccccc3)nc2-c2ccc(C)cc2)cc1              F
18  COc1ccc(CNC(=O)c2cc3c(-c4ccccc4F)nn(C)c3s2)c(OC)c1              F
19  Cc1cc(/C=C2\SC(=Nc3ccc(N4CCOCC4)cc3)N(C)C2=O)c(C)n1-c1cccnc1              F
20  O=C(O)C1=C[C@H](c2cccs2)C[C@H](OCCCCO)O1              F
21  CCN(CCCNC(=O)c1cc(Nc2ccc(OC)cc2)nc2ccccc12)c1cccc(C)c1              F
22  C=CCOC(=O)C1=C[C@@H](c2ccccc2)C[C@@H](OCc2ccc(CO)cc2)O1              F
23  CCOc1ccc(C(=O)/C=C/c2cn(CC(O)CN3CCCCCC3)c3ccccc23)cc1 (stereo not drawn)              F
24            COc1ccc(OC)c(NC(=O)Cc2cccs2)c1              T
25          CCOC(=O)c1ccc(NC(=O)Cc2cccs2)cc1              F
26  COc1ccccc1N1CC(C(=O)Nc2ccc(S(=O)(=O)N3CCOCC3)cc2)CC1=O (stereo not drawn)              T
27  Cc1cc(/C=C2/SC(=O)N(CC(=O)N3CCCC3)C2=O)c(C)n1C              F
28  Cc1cc(/C=C2\SC(=O)N(C)C2=O)c(C)n1-c1cccc(C(=O)O)c1              T
29  CCOC(=O)c1cc(-c2ccccc2)n(CCC(=O)Nc2ccccc2CC)c1C              F
30  COc1ccccc1OCCOc1ccc(/C=C2\C(=N)N3N=C(C)SC3=NC2=O)cc1              F
31  CC(C)c1ccc(OCC(=O)N(Cc2ccc(N(C)C)cc2)C2CCS(=O)(=O)C2)cc1 (stereo not drawn)              F
32    COc1ccc(NC(=O)COCc2cc(-c3ccco3)on2)cc1              F
33  Cc1ccccc1OCCOc1ccc([N+](=O)[O-])cc1/C=N/n1cnnc1              F
34  CCCOc1ccc(-c2cccc(NS(=O)(=O)c3ccccc3)c2)nn1              F
35  O=C(CSc1nc(=O)[nH]c2c1CCCC2)Nc1cc(C(F)(F)F)ccc1Cl              F
36  Cc1nn(Cc2ccccc2)c(C)c1C(=O)NCCN1C(=O)S/C(=C\c2ccc(F)cc2)C1=O              F
37           COc1ccc2nc(SCc3ccccc3)nc(C)c2c1              F
38  Fc1ccc(Nc2nc(SCc3ccccc3Cl)nc3ccccc23)cc1              F
39  COc1cc(CNCCSc2nnnn2C)ccc1OCc1ccc(Cl)cc1Cl              F
40  Clc1ccccc1CSc1nnc(-c2ccco2)c(-c2ccco2)n1              T
41             COc1ccc(C)cc1NC(=O)CNCc1cccs1              F
42  Oc1c(C(c2ccc(F)cc2)N2CCN(Cc3ccccc3)CC2)sc2nc(-c3ccco3)nn12 (stereo not drawn)              F
43  Cc1nn(Cc2ccccc2)c(Cl)c1C(=O)OC1CCOC1=O (stereo not drawn)              F
